B1: ZNF75A (parent)
chain: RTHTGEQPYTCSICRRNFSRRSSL

Variants of: B1
Assay: protein stability index of a GFP-peptide fusion (GPS, HEK-293T) (PSI 1-6); higher = more stable;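 note: lentivirally expressed fusions sorted by FACS into six bins by GFP to DsRed ratio, PSI derived from sequencing read proportions per bin multiplied by bin number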
Details: c terminus: a fixed tail appended
observation_type: protein stability index

L24S	2.99
G5P	2.78
S23V	2.5
R16D	1.78
L24Y	3.03
I13K	3.5

**Query** Can you look up the measured protein stability index of `T4P` for me?
**Result** 2.4

**Query** // protein stability index lookup, key: `S19L`
**Result** 2.51

**Query** Give its protein stability index value. Item: `Y9D`
**Result** 2.92

**Query** Tell me the measured protein stability index of `S19K` , please.
**Result** 2.91

**Query** Fill in: protein stability index of `T2A` is ___
**Result** 3.58

**Query** // lookup protein stability index for `H3Q`
**Result** 2.64

**Query** Please report the recorded protein stability index for `C14R` .
**Result** 4.49

**Query** I am curious: what protein stability index value has been reported for `T4D` ?
**Result** 3.31

**Query** Could you tell me which protein stability index is on file for `L24I` ?
**Result** 2.79

**Query** GET /values?readout=protein stability index&item= `N17E`
**Result** 2.19

All values here come from the supplement of paper PMC10567573.
